system: SF-268; assay: NCI tumour cell line growth inhibition, 48 h
Calls of active or inactive are those of the source. Rule as the data show it: active = GI50 up to about 1.1 µM and inactive = higher.
Assignment: determine reported GI50 for the given compounds.

Task: Quick check: GI50 of CC(=O)NC(CCCCNC(=O)N(C)N=O)C(=O)NCc1ccccc1 (stereo not given) ?
Output: > 100 µM (inactive)

Task: Quick check: GI50 of "CCCCCN(CCCCC)C(=O)[C@@H](CCC(=O)O)NC(=O)c1cc2ccccc2[nH]1" ?
Output: 24.5 µM (inactive)

Task: Quick check: GI50 of CC1CC[C@@H](C(C)C)[C@H](Oc2nnc(C3OC(CO)C(O)C3O)o2)C1 (stereo not given in full) ?
Output: > 100 µM (inactive)

Task: Quick check: GI50 of "O=C1C2=C(C(=O)c3c(O)ccc(O)c31)[C@@H](O)[C@@H](O)[C@@H](O)C2" ?
Output: 2.78 µM (inactive)

Task: Quick check: GI50 of "Cc1cc(O)cc(O)c1C(=O)O[C@]1(C)C(=O)C=C2C=C(/C=C/C(=O)O)OC=C2C1=O" ?
Output: > 100 µM (inactive)

Task: Quick check: GI50 of "O=C(c1ccc(Cl)cc1)c1ccc(OCC(=O)N2CCN(c3ccccc3)CC2)cc1" ?
Output: > 100 µM (inactive)

Task: Quick check: GI50 of "COc1ccc(C(=O)/C=C/c2ccc(OCC(=O)N3CCN(c4ccccc4)CC3)cc2)cc1OC" ?
Output: 3.39 µM (inactive)

Task: Quick check: GI50 of CCCCC1(N=[N+]=[N-])C(=O)c2cccc3c2N(CCC3)C1=O (stereo not given) ?
Output: > 100 µM (inactive)

Task: Quick check: GI50 of COC1OC(C)C(OC(=O)C(C)(C)C)C(C)(O)C1O (stereo not given) ?
Output: > 100 µM (inactive)

Task: Quick check: GI50 of "O=P(c1ccccc1)(c1ccccc1)c1ccc2c(c1)OCCOCCOCCOCCO2" ?
Output: > 100 µM (inactive)

###

system: HCT-116; test: NCI tumour cell line growth inhibition, 48 h
Active and inactive are the calls of the source. Cut-off read from the data, not from the text of the source: active = GI50 up to about 1.1 µM and inactive = higher. Residues, ends and D or L forms follow the SMILES beside them.
quantity: GI50

Task: Quick check: GI50 of "CCCCSc1n/c(=C\c2ccc(N(C)C)cc2)c2nnnn12" ?
Output: > 100 µM (inactive)

Task: Quick check: GI50 of "CCCCCCCCCCCCCCCC[N+](C)(C)Cc1ccc(C[N+](C)(C)CCCCCCCCCCCCCCCC)cc1" ?
Output: 2.59 µM (inactive)

Task: Quick check: GI50 of "O=[N+]([O-])c1ccc(/N=N\c2c(O)c(S(=O)(=O)O)cc3cc(S(=O)(=O)O)ccc23)cc1" ?
Output: > 100 µM (inactive)

Task: Quick check: GI50 of "CCOC(=O)NC(=O)c1cn(CCN2CCN(C(=O)NCCCCCCNC(=O)N3CCN(CCn4cc(C(=O)NC(=O)OCC)c(=O)[nH]c4=O)CC3)CC2)c(=O)[nH]c1=O" ?
Output: > 100 µM (inactive)

Task: Quick check: GI50 of "Cc1nc2c(n1CC(C)C)C(=O)c1ccccc1C2=O" ?
Output: 20.8 µM (inactive)

Task: Quick check: GI50 of "COc1cc(/C=C\c2ccc(OC(C)=O)cc2)cc(OC)c1OC" ?
Output: 4.43 µM (inactive)

Task: Quick check: GI50 of "CC(C)(C)c1ccc(OC(=O)Nc2ccc(O)c(C(=O)O)c2)cc1" ?
Output: > 100 µM (inactive)

Task: Quick check: GI50 of "COc1ccc(NS(=O)(=O)c2ccc(/N=C3\C=C(Nc4ccc(S(=O)(=O)Nc5ccc(OC)nn5)cc4)C(=O)c4ccccc43)cc2)nn1" ?
Output: 17.5 µM (inactive)

Task: Quick check: GI50 of CCC(C)C(NC(=O)C1CCCN1)C(=O)NC(C(=O)NCC(=O)NC(CC(N)=O)C(=O)NC(CC(C)C)C(=O)NC(CC(C)C)C(=O)NC(CCCCN)C(N)=O)C(C)C (stereo unspecified) (H-PIVGNLLK-NH2; configuration not given here) ?
Output: > 75 µM (inactive)

Task: Quick check: GI50 of "CC(=O)/C(=C(/Br)I)c1ccccc1" ?
Output: 4.52 µM (inactive)

Task: Quick check: GI50 of "CN(C)CCCN1CCC2(CCC(C(C)(C)C)CC2)CC1" ?
Output: 1.56 µM (inactive)

Task: Quick check: GI50 of COC1CC(OC)C2OC(c3ccccc3)OCC2O1 (stereo unspecified) ?
Output: > 100 µM (inactive)

Task: Quick check: GI50 of CN1CCc2cc3c(c4c2C1C(O)c1ccccc1-4)OCO3 (stereo unspecified) ?
Output: 3.68 µM (inactive)

Task: Quick check: GI50 of "COc1ccc(OC)c2c(=O)cc(-c3ccccc3)[nH]c12" ?
Output: > 100 µM (inactive)

Task: Quick check: GI50 of Cc1ccc(NC(=O)CCC(=O)C2CC(=O)CC/C2=N\NC(=O)c2cc3ccccc3cc2O)cc1C (stereo unspecified) ?
Output: 19.6 µM (inactive)

Task: Quick check: GI50 of "O=C1C[C@@]23CCC4(CC2=CCC[C@H]3O1)OCCO4" ?
Output: > 100 µM (inactive)

Task: Quick check: GI50 of "COc1cc2c[n+](C)c3c4ccccc4ccc3c2cc1OC.COc1cc2cnc3c4ccccc4ccc3c2cc1OC" ?
Output: 7.83 µM (inactive)

Task: Quick check: GI50 of "CCOC(=O)c1cc2cc(Cc3ccc4[nH]c(C(=O)OCC)cc4c3)ccc2[nH]1" ?
Output: 38.5 µM (inactive)

Task: Quick check: GI50 of O=C(O)C12C=CC(C1)c1ccccc12 (stereo unspecified) ?
Output: > 100 µM (inactive)

Task: Quick check: GI50 of "O=C1C=C(c2c(O)ccc3ccccc23)c2cc(O)ccc2C1=O" ?
Output: 16 µM (inactive)

Task: Quick check: GI50 of CCC(=O)N/S(=N/S(=O)(=O)c1ccccc1)C(Cl)(Cl)Cl (stereo unspecified) ?
Output: > 100 µM (inactive)

Task: Quick check: GI50 of "Oc1c(Br)cc(/C=C/c2ccnc(/C=C/c3cc(Br)c(O)c(Br)c3)c2)cc1Br" ?
Output: 17 µM (inactive)

Task: Quick check: GI50 of O=C1OC(=O)C2C3CCC(O3)C12 (stereo unspecified) ?
Output: > 100 µM (inactive)

Task: Quick check: GI50 of "CCSCC(=O)N1CCc2c([nH]c3ccccc23)C1=O" ?
Output: > 100 µM (inactive)

Task: Quick check: GI50 of "Cc1cc2c(cc1C)C(=O)c1ncccc1C2=O" ?
Output: 19.9 µM (inactive)

Task: Quick check: GI50 of "O=CN1CCN(C(=O)c2ccc(Cl)cc2Cl)C1=S" ?
Output: > 100 µM (inactive)

Task: Quick check: GI50 of "CC(=O)Nc1ccc(-c2nc3ccccc3s2)cc1I" ?
Output: 1.16 µM (inactive)

Task: Quick check: GI50 of "COc1ccc(-n2c(=O)n(-c3ccccc3)c(=O)n2-c2ccc(OC)cc2)cc1" ?
Output: > 100 µM (inactive)

Task: Quick check: GI50 of "CCOC(CCNCC(OCC)OCC)OCC" ?
Output: > 10 µM (inactive)

Task: Quick check: GI50 of "O=c1n(N=[S+]([O-])(c2ccccc2)c2ccccc2)c(=O)n2n1C1C=CC2CC1" ?
Output: > 100 µM (inactive)

Task: Quick check: GI50 of "COCCO" ?
Output: > 100 µM (inactive)

Task: Quick check: GI50 of CC(CC(C)[C@H]1CCC2[C@H]3C(CC(=O)[C@@]21C)[C@@]1(C)CCC(O)C[C@H]1C[C@@H]3O)C(=O)O (stereo partly specified) ?
Output: > 100 µM (inactive)

Task: Quick check: GI50 of CCN(CC)CC(C(=O)Nc1c(C)cccc1C)/C(C)=N/NC(N)=S (stereo unspecified) ?
Output: > 100 µM (inactive)

Task: Quick check: GI50 of CC(C)(C)OC(=O)N1C2CCCC23O[C@@H]1c1cc2c(cc1C3=O)OCO2 (stereo partly specified) ?
Output: 36.3 µM (inactive)

Task: Quick check: GI50 of "O=C1CCCCC/C1=C\c1cccc(F)c1" ?
Output: 54.6 µM (inactive)

Task: Quick check: GI50 of "Cc1ccc(S(=O)(=O)n2ccc(-c3ccc4ccn(S(=O)(=O)c5ccc(C)cc5)c4c3)c2)cc1" ?
Output: > 100 µM (inactive)

Task: Quick check: GI50 of "Nc1ccc(-c2nc3ccc(Cc4ccc5nc(-c6ccc(N)cc6)oc5c4)cc3o2)cc1" ?
Output: > 100 µM (inactive)

Task: Quick check: GI50 of "Cc1nc(SCC(N)=O)c2sc(=S)n(-c3ccccc3)c2n1" ?
Output: > 10 µM (inactive)

Task: Quick check: GI50 of "N=c1c2c(=S)n(-c3ccccc3)c(=S)n(-c3ccccc3)c2nc(SCCCN2CCCCC2)n1-c1ccccc1" ?
Output: 1.73 µM (inactive)

Task: Quick check: GI50 of CSCCC(C(=O)O)N(CC1(O)OCC(O)C(O)C1O)N=O (stereo unspecified) ?
Output: > 100 µM (inactive)

Task: Quick check: GI50 of O=C1CC(=O)NC(NN2C(=O)CSC2C(=O)c2ccco2)=N1 (stereo unspecified) ?
Output: > 100 µM (inactive)
